target-of-assay: Nuclear receptor ROR-gamma (Homo sapiens) (UniProt P51449)
assay-protocol: qHTS assay to identify small molecule antagonists of the retinoid-related orphan receptor gamma (ROR-gamma) signaling pathway (AID 1159521;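 further: CHO cells with doxycycline inducible ROR-gamma driving an RORE luciferase reporter; top concentration of the series differs between compounds; on the % scale 0 is the no-effect control and ±100 the full control effect; nearly all actives have a fitted effect of over 50% in size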)
condition-set: Tet-on RORgamma CHO cells, RORE-luciferase, 16 h; series mostly up to 92.4 µM
Records with an inconclusive call do not appear. The source made the active and inactive calls. The call rests on the fitted dose curve; in most records, active means well fitted inhibition curve with a large enough effect in the repeat runs; inconclusive means weak or mixed curves, or effect the other way; inactive means no such curve, though single readings can be large or run the other way.
Result category, one only: active, inactive

CCNc1nc(Cl)nc(NC(C)(C)C#N)n1    inactive
CC(C)CON=O    inactive
CCCCCCCCCCCCCl    inactive
N#CCCCCC#N    inactive
CC(O)CN(CC(C)O)CC(C)O (configuration not stated)    inactive
CC1(C)Cc2cccc(O)c2O1    inactive
Cc1cc(Cl)ccc1N=CN(C)C    inactive
C[N+](C)(C)CC(=O)[O-]    inactive
C=C(C)C#N    inactive
O=C(O)CF    inactive

Recorded test call requested for C=CC(Cl)CCl (configuration not stated) inactive

Recorded test call requested for O=[N+]([O-])/N=C1\NCCN1Cc1ccc(Cl)nc1 inactive

----------
So I've got a bunch of molecules here, and I need their activity change, positive = activation values.
assay-protocol: qHTS assay to identify small molecule agonists of the estrogen related receptor (ERR) signaling pathway from Tox21 library (AID 1224849); further: on the % scale 0 is the no-effect control and ±100 the full control effect; nearly all actives have a fitted effect of over 15% in size
condition-set: ERR reporter cell line, ONE-Glo luciferase, 18 h; at 42.5 µM (top of the series)
One number for each entry, in %.

Solved cases below.
CC(C)(O)C(=O)Nc1ccc([N+](=O)[O-])c(C(F)(F)F)c1    -39.6
CCC1(c2ccc(N)cc2)CCC(=O)NC1=O (centres undefined)    5.08
COP(=S)(OC)Oc1ccc(S(=O)(=O)N(C)C)cc1    -5.44

API: the following record is the query input.
Bench note: what activity change, positive = activation did CC(C)=CC1C(C(=O)OCc2cccc(Oc3ccccc3)c2)C1(C)C (centres undefined) show? -0.963

----------
target-of-assay: Acetylcholinesterase (Homo sapiens) (UniProt P22303)
Sequence (P22303 whole entry, looked up): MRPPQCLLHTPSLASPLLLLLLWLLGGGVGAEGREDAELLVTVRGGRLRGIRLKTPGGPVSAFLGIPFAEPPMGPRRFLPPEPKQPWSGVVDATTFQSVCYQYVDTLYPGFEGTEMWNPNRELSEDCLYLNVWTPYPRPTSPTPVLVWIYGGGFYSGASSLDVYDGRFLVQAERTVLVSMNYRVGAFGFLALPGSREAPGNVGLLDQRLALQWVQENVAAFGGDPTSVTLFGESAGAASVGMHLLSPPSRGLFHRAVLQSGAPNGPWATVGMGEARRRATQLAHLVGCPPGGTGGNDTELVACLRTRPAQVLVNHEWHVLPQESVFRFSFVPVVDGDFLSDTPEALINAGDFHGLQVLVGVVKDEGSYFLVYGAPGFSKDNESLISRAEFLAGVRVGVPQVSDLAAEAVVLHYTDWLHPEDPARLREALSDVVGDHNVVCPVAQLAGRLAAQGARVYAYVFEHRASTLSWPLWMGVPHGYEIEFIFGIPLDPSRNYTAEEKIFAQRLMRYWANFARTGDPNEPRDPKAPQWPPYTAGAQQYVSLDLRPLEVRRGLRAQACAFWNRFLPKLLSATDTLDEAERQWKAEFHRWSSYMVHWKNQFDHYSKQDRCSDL
assay-protocol: Acetylcholinesterase (AChE) small molecule antagonists: enzyme-based qHTS assay (AID 1347397); further: on the % scale 0 is the no-effect control and ±100 the full control effect; nearly all actives have a fitted effect of over 55% in size
condition-set: AChE enzyme activity inhibition; series mostly up to 115 µM
The source made the active and inactive calls. Calls follow the shape of the full dose curve.
endpoint-name: outcome

O=[N+]([O-])c1ccc(Cl)c([N+](=O)[O-])c1    inactive
Oc1ccc(Cl)cc1Cl    inactive
CC1(C)C(C(=O)OC(C#N)c2cccc(Oc3ccccc3)c2)C1(C)C (stereo unspecified)    inactive
N#CC(c1ccccc1)c1ccccc1    inactive
CCCCSP(=O)(SCCCC)SCCCC    inactive
CCNc1nc(Cl)nc(NC(C)(C)C#N)n1    inactive
C=CC(=O)OCC(CC)(COC(=O)C=C)COC(=O)C=C    inactive
O=C(O)CF    inactive
CC(C)(c1ccccc1)c1ccc(O)c(C(C)(C)c2ccccc2)c1    inactive
CCOP(=S)(OCC)SCSC(C)(C)C    inactive

Parameter requested: outcome. Apply to each item below.
1. CCCCOCCOC(C)=O
2. CCCCCCCCCCCCCl

1: inactive; 2: inactive

----------
assay-protocol: qHTS RealTime-Glo MT Cell Viability Assay in HEK293 cells - 16 hour (AID 1224872); further: top concentration of the series differs between compounds; on the % scale 0 is the no-effect control and ±100 the full control effect; nearly all actives have a fitted effect of over 50% in size
condition-set: RealTime-Glo luminescence; series mostly up to 76.8 µM
Inconclusive results are not listed. Activity calls are given as the source filed them. Calls follow the shape of the dose curve; as a rule, active = well fitted cell-killing curve with a large enough effect in the repeat runs; inconclusive = weak or mixed curves, or effect the other way; inactive = flat fitted curve, though single readings scatter.
endpoint-name: Potency

Solved cases below.
COP(=S)(OC)Oc1ccc(S(=O)(=O)N(C)C)cc1    inactive
COP(=S)(OC)Oc1ccc(Sc2ccc(OP(=S)(OC)OC)cc2)cc1    inactive
CCCCSP(=O)(SCCCC)SCCCC    inactive
CC1(C)Cc2cccc(O)c2O1    inactive

Parameter requested: Potency. Apply to each item below.
1. [CH3][Sn]([Cl])([Cl])[Cl]
2. CCOP(=S)(OCC)SCSC(C)(C)C
3. CCOP(=S)(OCC)OP(=S)(OCC)OCC
4. CCNCC
5. ClC(Cl)=C(Cl)C(Cl)=C(Cl)Cl
6. C[N+](C)(C)CC(=O)O

inactive
inactive
inactive
inactive
inactive
inactive

Parameter requested: Potency. Apply to each item below.
1. O=C1CCCO1
2. CNC(=O)Oc1cccc2c1OC(C)(C)C2
3. CC(C)=CC1C(C(=O)OCN2C(=O)C3=C(CCCC3)C2=O)C1(C)C (configuration not stated)

["inactive", "inactive", "inactive"]

----------
target-of-assay: Androgen receptor (Homo sapiens) (UniProt P10275)
Sequence (P10275 whole entry, looked up): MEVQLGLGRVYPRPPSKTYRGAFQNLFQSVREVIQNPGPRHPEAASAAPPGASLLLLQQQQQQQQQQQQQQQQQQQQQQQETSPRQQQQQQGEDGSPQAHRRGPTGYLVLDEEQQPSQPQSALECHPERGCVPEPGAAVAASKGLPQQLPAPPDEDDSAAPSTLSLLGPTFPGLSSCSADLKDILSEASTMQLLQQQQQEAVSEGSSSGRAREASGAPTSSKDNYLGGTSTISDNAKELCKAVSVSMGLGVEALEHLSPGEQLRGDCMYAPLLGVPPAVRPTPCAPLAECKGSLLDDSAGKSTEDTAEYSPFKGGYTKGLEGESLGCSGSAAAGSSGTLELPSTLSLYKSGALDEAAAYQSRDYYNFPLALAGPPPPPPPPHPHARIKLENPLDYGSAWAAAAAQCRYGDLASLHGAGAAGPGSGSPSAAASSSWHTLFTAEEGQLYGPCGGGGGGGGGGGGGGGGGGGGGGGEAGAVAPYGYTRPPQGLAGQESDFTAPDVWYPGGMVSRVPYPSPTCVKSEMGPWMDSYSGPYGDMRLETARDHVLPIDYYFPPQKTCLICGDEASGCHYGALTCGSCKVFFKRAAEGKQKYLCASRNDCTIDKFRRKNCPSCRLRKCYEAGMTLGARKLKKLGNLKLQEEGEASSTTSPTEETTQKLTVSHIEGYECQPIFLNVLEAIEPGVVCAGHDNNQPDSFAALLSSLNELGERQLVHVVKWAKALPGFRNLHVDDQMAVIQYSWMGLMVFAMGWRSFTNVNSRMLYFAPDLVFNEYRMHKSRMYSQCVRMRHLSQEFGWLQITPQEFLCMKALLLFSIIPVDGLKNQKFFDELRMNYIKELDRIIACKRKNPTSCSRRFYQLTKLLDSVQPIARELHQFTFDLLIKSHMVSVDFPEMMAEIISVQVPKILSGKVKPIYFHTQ
assay-protocol: qHTS assay to identify small molecule antagonists of the androgen receptor (AR) signaling pathway using the MDA cell line (AID 743042; further: nearly all actives have a fitted effect of over 55% in size)
condition-set: MDA-kb2 AR-luc, MMTV luciferase, R1881 antagonist, 16 h; series mostly up to 70.3 µM
Results filed as inconclusive are left out. The source made the active and inactive calls. Calls come from the whole dose curve; as a rule, active = well fitted inhibition curve with a large enough effect in the repeat runs; inconclusive = weak or mixed curves, or effect the other way; inactive = no such curve, though single readings can be large or run the other way.
Result category, one only: yes = active, no = inactive

Consider the following illustrative entries.
CNC(=O)Oc1cccc2c1OC(C)(C)C2    no
O=[N+]([O-])/N=C1\NCCN1Cc1ccc(Cl)nc1    no
COP(=S)(OC)Oc1ccc(Sc2ccc(OP(=S)(OC)OC)cc2)cc1    yes

Recorded test call requested for CC(C)(c1ccc(OCC2CO2)cc1)c1ccc(OCC2CO2)cc1 (stereo not given) no

Recorded test call requested for S=c1[nH]c2ccccc2[nH]1 no

----------
target-of-assay: Peroxisome proliferator-activated receptor gamma (Homo sapiens)
assay-protocol: qHTS assay to identify small molecule antagonists of the peroxisome proliferator-activated receptor gamma (PPARg) signaling pathway (AID 743191); further: nearly all actives have a fitted effect of over 30% in size
condition-set: HEK293H PPARg-UAS-bla, beta-lactamase ratio, antagonist, 17 h; series mostly up to 62.6 µM
Inconclusive results are not listed. Activity calls are given as the source filed them. Calls follow the shape of the full dose curve.
Result category, one only: active, inactive

Brc1ccc(Br)cc1    inactive
CNC(=O)CSP(=S)(OC)OC    inactive
NN=C(N)N    inactive
CC(C)=CC1C(C(=O)OCN2C(=O)C3=C(CCCC3)C2=O)C1(C)C (stereo not drawn)    active

Recorded test call requested for COC(=O)Nc1nc2ccccc2[nH]1 inactive

Recorded test call requested for O=S(=O)(O)C(F)(F)C(F)(F)C(F)(F)C(F)(F)C(F)(F)C(F)(F)C(F)(F)C(F)(F)F inactive

Recorded test call requested for CC1CC(=O)O1 (stereo not drawn) inactive

Recorded test call requested for O=C1Nc2ccc(Cl)cc2C(c2ccccc2)=NC1O (stereo not drawn) active

Recorded test call requested for Cc1ccc([N+](=O)[O-])cc1 inactive

Recorded test call requested for ClC(Cl)=C(Cl)C(Cl)=C(Cl)Cl inactive

Recorded test call requested for Clc1cccc(Cl)c1 inactive

Recorded test call requested for C[N+](C)(C)C inactive

Recorded test call requested for CC1(C)C(C(=O)OC(C#N)c2cccc(Oc3ccccc3)c2)C1(C)C (stereo not drawn) inactive

Recorded test call requested for Nc1ccc2ccccc2c1 inactive

Recorded test call requested for OCCOCCO inactive

----------
assay-protocol: qHTS RealTime-Glo MT Cell Viability Assay in HEK293 cells - 8 hour (AID 1224887); further: nearly all actives have a fitted effect of over 50% in size
condition-set: RealTime-Glo luminescence; series mostly up to 76.8 µM
Excerpt: U.S. Tox21 Program National Center for Advancing Translational Sciences [NCATS] NIH Chemical Genomics Center [NCGC] U.S. Environmental Protection Agency [EPA] National Institutes of Environmental Health Sciences [NIEHS] National Toxicology Program [NTP] U.S. Food and Drug Administration [FDA] Tox21 Assay Overview: Measure of cell viability is critical in the cell-base assay. Analysis of cell viability is necessary for the characterization of cell responses to cytotoxic drugs and environmental stress. […]
Results filed as inconclusive are left out. Active and inactive are the calls of the source. Calls follow the shape of the dose curve; as a rule, active = well fitted cell-killing curve with a large enough effect in the repeat runs; inconclusive = weak or mixed curves, or effect the other way; inactive = flat fitted curve, though single readings scatter.
Result category, one only: active, inactive

Consider the following illustrative entries.
CCCCCCCCCC(CC)c1ccc(S(=O)(=O)O)cc1 (centres undefined)    inactive
ClC(Cl)(Cl)c1ccccc1    inactive
COC(=O)Nc1nc2ccccc2[nH]1    inactive
CC(C)(C#N)N=NC(C)(C)C#N    inactive
CC(C)(O)C#N    inactive
CC[n+]1c(-c2ccccc2)c2cc(N)ccc2c2ccc(N)cc21    active

Recorded test call requested for Nc1ccc([N+](=O)[O-])cc1N inactive

Recorded test call requested for CC(C)=CC1C(C(=O)OCc2cccc(Oc3ccccc3)c2)C1(C)C (centres undefined) inactive

Recorded test call requested for CCOS(=O)(=O)OCC inactive

Recorded test call requested for CC1=C(C(=O)Nc2ccccc2)SCCO1 inactive

Recorded test call requested for O=[N+]([O-])/N=C1\NCCN1Cc1ccc(Cl)nc1 inactive

Recorded test call requested for NN=C(N)N inactive

Recorded test call requested for CS(=O)(=O)NC(=O)c1cc(Oc2ccc(C(F)(F)F)cc2Cl)ccc1[N+](=O)[O-] inactive

Recorded test call requested for NC(=O)CN1CCCC1=O inactive

----------
target-of-assay: Vitamin D3 receptor (Homo sapiens) (UniProt P11473)
Sequence (P11473 whole entry, looked up): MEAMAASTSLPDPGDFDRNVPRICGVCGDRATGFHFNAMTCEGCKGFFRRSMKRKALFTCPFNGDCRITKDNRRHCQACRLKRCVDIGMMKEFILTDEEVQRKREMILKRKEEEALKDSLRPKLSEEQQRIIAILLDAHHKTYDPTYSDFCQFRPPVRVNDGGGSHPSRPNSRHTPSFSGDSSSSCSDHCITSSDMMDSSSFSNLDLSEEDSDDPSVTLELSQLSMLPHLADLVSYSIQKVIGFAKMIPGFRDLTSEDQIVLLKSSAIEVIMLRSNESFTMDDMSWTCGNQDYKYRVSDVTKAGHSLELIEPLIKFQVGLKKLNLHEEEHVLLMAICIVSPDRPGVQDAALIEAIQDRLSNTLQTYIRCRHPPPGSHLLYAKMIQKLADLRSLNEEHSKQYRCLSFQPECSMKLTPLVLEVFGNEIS
assay-protocol: qHTS assay to identify small molecule antagonists of the vitamin D receptor (VDR) signaling pathway (AID 743223); further: on the % scale 0 is the no-effect control and ±100 the full control effect
condition-set: VDR-UAS-bla HEK293T, beta-lactamase FRET ratio, 16 h; series mostly up to 61 µM
Excerpt: U.S. Tox21 Program National Center for Advancing Translational Sciences [NCATS] NIH Chemical Genomics Center [NCGC] U.S. Environmental Protection Agency [EPA] National Institutes of Environmental Health Sciences [NIEHS] National Toxicology Program [NTP] U.S. Food and Drug Administration [FDA] Tox21 Assay Overview: The vitamin D receptor (VDR), a member of nuclear hormone receptor superfamily, plays a critical role in calcium homeostasis and bone metabolism. […]
Results filed as inconclusive are left out. Activity calls are given as the source filed them. The call rests on the fitted dose curve; in most records, active means well fitted inhibition curve with a large enough effect in the signal ratio in the repeat runs (not every such curve was filed as active); inconclusive means weak or mixed curves, or effect the other way; inactive means no such curve, though single readings can be large or run the other way; the % refers to the signal ratio.
Result category, one only: Y = active, N = inactive

Consider the following illustrative entries.
COP(=O)(NC(C)=O)SC (configuration not stated)    N
CC(C)(C#N)N=NC(C)(C)C#N    N
O=S(=O)(O)C(F)(F)C(F)(F)C(F)(F)C(F)(F)C(F)(F)C(F)(F)C(F)(F)C(F)(F)F    N
CC(C)Nc1nc(Cl)nc(NC(C)C)n1    N
COc1ccc(CO)cc1    N
CCCCOCC1CO1 (configuration not stated)    N

Recorded test call requested for CC(C)CON=O N

Recorded test call requested for CCCCOCCOC(C)=O N

Recorded test call requested for NC(=O)CN1CCCC1=O N
